# Tested on: PPARg:RXRa DBDmut IVT, anti-RXR (DBD mutation: RXRa K156A/R161A, NR concentration 270 nM, RXRa partner concentration 90 nM)
# protocol description: PBM binding z-score (relative to random genomic background probes); higher = stronger binding; sequences stand for … in GC…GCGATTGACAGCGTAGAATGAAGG
measured metric: PBM binding z-score

Please give PBM binding z-score, item by item, for the list that follows.
1. CGAACTAGGTCATCCAGGACTGTGAATACATTGA
2. AGAATTAGGTTATTAAGATCAGGGAATTGCGGTC
3. ACAGACAGGTGAGTGAAGGTAACTAAGCTGGACG

8.21
6.63
0.098

Batch of 8 sequences: report PBM binding z-score for each.
1. TTACCAAGGTGAAAGGTCGTTAATGCACGCCTTG
2. TCTAGTTGGTCAAAGTTCACACACTCGAAATGCG
3. CCTACTGGGCCAAAAAGGTCATTGGTGCCGATAA
4. AGAATGAGGTTATACGTAGATCAGGGAAGAAAGT
5. CCTAATGGGCCAAAGGTCATTGATTCCAATGCTC
6. CGTGCAAGGTCATAGGAGGTCAGTGAAGACAGAT
7. AGTCAAAGTTCAGGACGAGGTAACGTAGAGCACG
8. TTACCAAGGTGAATGGTCGTTGATGCACGCCTTG

[2.25, 2.57, 3.78, 4.01, 3.94, 3.54, 0.103, 2.03]

// for each sequence below, give its PBM binding z-score
1. CCGAGTAGGGTATGGGGCATTCAGGCAACGGTGA
2. CCAGACAGGTGAGAAGATAACTCAGCCTCGATTA
3. CGAACTACGTCAAGGACAGTGAATCTCCGCACGC
4. ATCTCTAGGTAAAAGTTCGGTGAATCCCGAGGAT
5. ACTCGGAGGACAAAGGTCAGAGCCACGCCAGTGA
6. CCTCGGAGGACAACAGGAGGTCAGAGCCGCCAGA
7. TCTCGGAGGACACGACGGTCAGAGCTTTCCAGAG

[0.659, 0.896, -0.146, 2.29, 0.449, -0.218, 1.2]

Would you be so kind as to report PBM binding z-score for each listed record?
1. TCTATTACTTGATTAGGGCAACCGAAACAGCGGA
2. TCATATAGGTAAAGGTGAAAGTGGAACGATATGA
3. CCTATTAGTTGACCATAAGGGCAACCGAAGCTCG
4. ACTCGCAGGCCAAGGGTCACTCAAGATTAGTCCG
5. ACAGACAGGTGATGAAGGTGACTCAGGCTATCAT
6. CTACCAAAGTGAACAAGGTCGTTGATTACTATTC
7. CGTCAAAGTTCTACTAAGGTAACGTAAAGCACGC
8. CGTCCAAGGTCATAGGAGCTCAGTGAAGACAGAT

2.08
3.98
0.774
0.79
0.111
0.74
0.0553
2.78

For each of the items listed, what is its PBM binding z-score?
1. CGTCAAAGTTCAACTAAGCTAACGTAAAGCACGC
2. TTATATAGGTAAAGGTGAAAGTCGAACGATATGA
3. TCTAGTTGATCAAAGGTCACACACTCGAAATGCG
4. CCTGCTAGGTCATGGCCAGCTAATCTACAGTATG
5. ACTGACAGGTGATGAAGGTAACTCAGGCTATCAT
6. CCTACTGGGCCAAGGTCAGTGATCAGTCAAAGCA

0.667
5.88
2.34
4.25
0.252
3.15

// each listed sequence needs a value for PBM binding z-score
1. AGGCAAAGTTCAGGACGAGGTAACGTAAAGCACG
2. TCGAGTAGGTTAAGGGCATTCAGAATGGCGTCGA
3. TGAATGTGGTTATAAGATCAGGGAACGTTGCAAA
4. CCTTACGGGTCACTCCACGTTATAGCATCGGAGT
5. CGAACTAGGTCAAGGACAGTGGATCTCCGCACGC
6. ACTAGCAGGCAAAGTTTGGGTCACTCAAACAAAG

-0.11
2.73
-0.328
2.55
8.19
-0.359

Quick request: PBM binding z-score for each listed item, please.
1. CTACCAAGGTGAACAAGGTCGTTTATTACTATTC
2. GCAGACAGGTGAAACGCAGGGAACTCAGGGTGGC
3. ACATGTAGGTTACATCCGGGTCATTCAGGCTATG
4. TTACCAAGTTGAAAGGTCGTTGATGCACGCCTTG
5. CAAATTAGGTCACGAAAGGTCAAAGTCGAATGAC
6. TCGAGTAGGTTAGTCGGGGCATTGAGCCAACATA
7. GCATATAGGTAATACAAGGTGAACGTCCGATTGT

2.67
0.902
6.27
0.565
8.68
2.07
4.57

Lab note: each sequence below needs its PBM binding z-score filled in.
1. GCTGCTGGGTCAACTGATGGTCAGCTAAAGCTCG
2. CCTGCTAGGTTATGGTCAGCTAATCTACAGTATG
3. ACTATTAGTTGAGGCGAGGGCAACCGATAGGTTG
4. CCTCGGAGGACAGCAGGTCAGAGCTGTCCGCTTT
5. CCTTACGGGTCACTGACAGGTTATACCATTTGGA
6. GCTGCTAGGTCAGGTTGGTCCGCTAACGGGTACG

[3.67, 1.28, 0.169, -0.0532, 3.69, 2.43]

Value source: the supplement of paper PMC6555819
